Target: T1, 4H3613-bA
T1 chain: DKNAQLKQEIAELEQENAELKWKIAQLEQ
Assay: two-hybrid library CCNG1;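 note: natural log of median RNA to DNA barcode read ratio; higher means stronger binding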
value_kind: interaction score

(1) DENAQLEQENAELKQEIAELEWKIAQLKQ [4H1222-bA]
(2) DKNAQLEQEIAELKQKIAELEWKNAQLEQ [4H3175-bA]
(3) DENAQLKQEIAELEQEIAELEWKNAQLKQ [4H1544-bA]
(4) DENAQLKQKNAELKQEIAELEWEIAQLEQ [4H1985-bA]
(5) DKNAQLKQEIAELEQENAELKWKIAQLEQ [4H3613-bA]
Query string: Ordering: ascending interaction score. To answer, write out the labels according to the requested order.
Result string: 4, 1, 2, 5, 3
(4: -1.14, 1: -0.452, 2: -0.277, 5: -0.128, 3: 0.572)

(a) DENAQLEQKIAELEQKNAELKWEIAQLKQ [4H1338-bA]
(b) DENAQLEQKNAELEQKIAELKWEIAQLEQ [4H1449-bA]
(c) DENAQLEQKIAELKQENAELKWKIAQLEQ [4H1373-bA]
Query string: Sort ascending by interaction score. To answer, write out the labels according to the requested order.
Result string: b, a, c

(P) DENAQLKQKIAELKQKIAELKWENAQLEQ [4H1899-bA]
(Q) DKNAQLEQENAELKQKIAELEWEIAQLKQ [4H3298-bA]
Query string: Please state the entry with greater interaction score among P and Q . Write down the label of the entry you select.
Result string: Q
(Q: 0.681, P: -1.23)

Taken from paper PMC10397247.
